test system: Enterobacter spp. isolates (Enterobacter aerogenes and E. cloacae, n = 102); assay: organism not typed
measured-metric: MIC50

C[C@@H](O)[C@H]1C(=O)N2C(C(=O)O)=C(S[C@@H]3CN[C@H](C(=O)N(C)C)C3)[C@H](C)[C@H]12 [Meropenem]: 0.03 µg/mL
NC[C@H]1O[C@H](O[C@H]2[C@H](O)[C@@H](O[C@H]3O[C@H](CO)[C@@H](O)[C@H](N)[C@H]3O)[C@H](N)C[C@@H]2N)[C@H](N)C[C@@H]1O [Tobramycin]: 0.5 µg/mL
C[C@H]1COc2c(N3CCN(C)CC3)c(F)cc3c(=O)c(C(=O)O)cn1c23 [Levofloxacin]: 0.06 µg/mL

Now, please, on to the next compound.
So what does the record say about MIC50 for CC(C)(O/N=C(\C(=O)N[C@@H]1C(=O)N2C(C(=O)[O-])=C(C[n+]3ccccc3)CS[C@H]12)c1csc(N)n1)C(=O)O [Ceftazidime] ? 1 µg/mL

====

tested on: Enterococcus faecium isolates (n = 104); test: microbe, parasite or virus in culture; conditions: Enterococcus faecium, read-out: Mode (MIC)
measured-metric: MIC

CN[C@H](CC(C)C)C(=O)N[C@H]1C(=O)N[C@@H](CC(N)=O)C(=O)N[C@H]2C(=O)N[C@H]3C(=O)N[C@H](C(=O)N[C@H](C(=O)O)c4cc(O)cc(O)c4-c4cc3ccc4O)[C@H](O)c3ccc(c(Cl)c3)Oc3cc2cc(c3O[C@@H]2O[C@H](CO)[C@@H](O)[C@H](O)[C@H]2O[C@H]2C[C@](C)(N)[C@H](O)[C@H](C)O2)Oc2ccc(cc2Cl)[C@H]1O: > 32 µg/mL
CC(=O)NC[C@H]1CN(c2ccc(N3CCOCC3)c(F)c2)C(=O)O1: 2 µg/mL
CCC[C@@H]1C[C@@H](C(=O)N[C@@H]([C@H]2O[C@H](SC)[C@H](O)[C@@H](O)[C@H]2O)[C@H](C)Cl)N(C)C1: > 16 µg/mL

Query for Enterococcus faecium isolates (n = 104): what MIC does the record show for `C[C@H]1COc2c(N3CCN(C)CC3)c(F)cc3c(=O)c(C(=O)O)cn1c23` ? > 8 µg/mL

Query for Enterococcus faecium isolates (n = 104): what MIC does the record show for `C[C@H]1c2cccc(O)c2C(=O)C2=C(O)[C@]3(O)C(=O)C(C(N)=O)=C(O)[C@@H](N(C)C)[C@@H]3[C@@H](O)[C@@H]21` ? 0.12 µg/mL

====

test system: Pseudomonas aeruginosa isolates (n = 109); details: Pseudomonas aeruginosa (n = 109); CLSI breakpoints
Listing of recorded % R (percent of isolates resistant) by entry.
Write the value in % as a bare number.

Example cases with answers are listed next.
NC[C@H]1O[C@H](O[C@H]2[C@H](O)[C@@H](O[C@H]3O[C@H](CO)[C@@H](O)[C@H](N)[C@H]3O)[C@H](N)C[C@@H]2N)[C@H](N)C[C@@H]1O: 7.4
C[C@H]1COc2c(N3CCN(C)CC3)c(F)cc3c(=O)c(C(=O)O)cn1c23: 21.1
C[C@@H](O)[C@H]1C(=O)N2C(C(=O)O)=C(S[C@@H]3CN[C@H](C(=O)N(C)C)C3)[C@H](C)[C@H]12: 20.2

Now, please, on to the next compound.
Query for Pseudomonas aeruginosa isolates (n = 109): what % R (percent of isolates resistant) does the record show for `CC(C)(O/N=C(\C(=O)N[C@@H]1C(=O)N2C(C(=O)[O-])=C(C[n+]3ccccc3)CS[C@H]12)c1csc(N)n1)C(=O)O` ? 14.6
